- Tested on: Dekkera bruxellensis ATCC 36234
- assay notes: Broth microdilution antifungal susceptibility (MIC), yeast
- Assay type: cell-based
- conditions: Brettanomyces bruxellensis, ATCC36234; MIC = concentration exhibiting >90% inhibition of growth vs control; RPMI 1640, 48-72 h; read-out: Minimum Inhibitory Concentration, Dekkera bruxellensis ATCC 36234
Let's look at some compounds and their measured MIC.
// units = µg/mL; emit number, no label

The cases that follow already have their MIC on record.
[
  {
    "compound": "CC(Cc1ccc(C(C)(C)C)cc1)CN1CC[Si](C)(C)CC1 (racemic)",
    "outcome measure": "MIC",
    "measurement unit": "µg/mL",
    "observed value": 16
  },
  {
    "compound": "CC(Cc1ccc(C(C)(C)C)cc1)CN1CCCCC1 (stereo not shown) [Fenpropidin, reference compound]",
    "outcome measure": "MIC",
    "measurement unit": "µg/mL",
    "observed value": 128
  }
]

From here, focus on the item given below.
Quick check: MIC of CCC(C)(C)c1ccc(CC(C)CN2CC[Si](C)(C)CC2)cc1 (stereo not shown) ?
4
